FYI, the data here is from ChEMBL document CHEMBL1149983.

ASSAY_PROCEDURE: Reaction time taken for industrial alkaline protease catalyzed synthesis using CBz-Phe-OCP as acyl donor and Gly-NH2 as nucleophile
Peptide text beside a SMILES is read from it. * marks the point of attachment. Cbz = O=C(OCc1ccccc1)*
QUANTITY_MEASURED: Reaction time (h)

CC(C)C[C@H](NC(=O)CNC(=O)[C@H](Cc1ccccc1)NC(=O)OCc1ccccc1)C(N)=O (Cbz-Phe-Gly-Leu-NH2) ... 1

A. NC(=O)[C@H](Cc1ccccc1)NC(=O)[C@H](Cc1ccccc1)NC(=O)OCc1ccccc1
B. NC(=O)CNC(=O)CNC(=O)[C@H](Cc1ccccc1)NC(=O)OCc1ccccc1 (Cbz-Phe-Gly-Gly-NH2)
Could you determine which record has the numerically smaller Reaction time? Candidates: A and B Answer format: the label of the selected item.
A

====

ASSAY_PROCEDURE: Reaction time taken for industrial alkaline protease catalyzed synthesis using CBz-Phe-OCP as acyl donor and Gly-NH2 as nucleophile
Peptide text beside a SMILES is read from it. * marks the point of attachment. Cbz = O=C(OCc1ccccc1)*
QUANTITY_MEASURED: Reaction time (h)

CCCOC(=O)[C@@H](C)NC(=O)[C@H](CC(=O)OCc1ccccc1)NC(=O)OCc1ccccc1 ... 2
CC(C)C[C@H](NC(=O)[C@H](Cc1ccccc1)NC(=O)OCc1ccccc1)C(N)=O ... 1
NC(=O)CNC(=O)[C@H](Cc1ccccc1)NC(=O)OCc1ccccc1 (Cbz-Phe-Gly-NH2) ... 1
NC(=O)[C@@H](Cc1ccccc1)NC(=O)[C@H](Cc1ccccc1)NC(=O)OCc1ccccc1 ... 2

I. NC(=O)[C@H](Cc1ccccc1)NC(=O)CNC(=O)[C@H](Cc1ccccc1)NC(=O)OCc1ccccc1 (Cbz-Phe-Gly-Phe-NH2)
II. CC(C)C[C@@H](NC(=O)[C@H](Cc1ccccc1)NC(=O)OCc1ccccc1)C(N)=O
Compare Reaction time: is it lower for I or for II ? Identify your selection by its label.
I
(I: 1 h, II: 1.5 h)
